Each entry below carries its reported EC50 (nM), IFNγ induction, NK-92 cells.
# target: T1, IL-18 receptor (IL-18Rαβ) on cells (UniProt Q13478 19-541; O95256 20-599, limits assumed)
# T1 sequence (looked up) 1: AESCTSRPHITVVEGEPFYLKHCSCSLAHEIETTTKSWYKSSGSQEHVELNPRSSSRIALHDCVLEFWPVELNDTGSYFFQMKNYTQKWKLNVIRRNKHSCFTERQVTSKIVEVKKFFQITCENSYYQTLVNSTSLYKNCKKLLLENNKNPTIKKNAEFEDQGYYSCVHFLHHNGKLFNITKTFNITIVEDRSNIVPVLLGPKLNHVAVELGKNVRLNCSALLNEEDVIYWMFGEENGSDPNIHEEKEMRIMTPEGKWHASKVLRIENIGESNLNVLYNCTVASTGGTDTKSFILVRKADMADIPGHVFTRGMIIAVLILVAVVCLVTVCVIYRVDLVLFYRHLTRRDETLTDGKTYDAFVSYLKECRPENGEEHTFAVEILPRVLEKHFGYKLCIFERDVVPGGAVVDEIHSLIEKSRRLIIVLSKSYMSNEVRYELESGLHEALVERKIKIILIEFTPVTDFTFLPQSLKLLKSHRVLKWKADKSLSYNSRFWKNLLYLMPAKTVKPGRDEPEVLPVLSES
# T1 sequence (looked up) 2: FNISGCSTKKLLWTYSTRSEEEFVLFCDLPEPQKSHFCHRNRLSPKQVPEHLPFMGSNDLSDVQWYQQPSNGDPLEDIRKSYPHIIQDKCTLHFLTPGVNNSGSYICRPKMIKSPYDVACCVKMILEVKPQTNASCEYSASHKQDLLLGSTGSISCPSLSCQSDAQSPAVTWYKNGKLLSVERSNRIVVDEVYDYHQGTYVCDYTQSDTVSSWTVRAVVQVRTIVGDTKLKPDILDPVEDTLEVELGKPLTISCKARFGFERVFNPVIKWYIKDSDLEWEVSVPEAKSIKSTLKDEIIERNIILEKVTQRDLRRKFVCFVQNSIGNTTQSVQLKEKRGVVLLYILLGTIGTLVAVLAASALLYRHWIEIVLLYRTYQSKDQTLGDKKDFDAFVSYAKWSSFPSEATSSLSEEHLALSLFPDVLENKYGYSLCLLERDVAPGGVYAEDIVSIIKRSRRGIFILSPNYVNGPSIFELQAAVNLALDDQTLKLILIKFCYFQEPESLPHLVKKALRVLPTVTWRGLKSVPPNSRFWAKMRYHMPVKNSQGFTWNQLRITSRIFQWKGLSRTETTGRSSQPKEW
# procedure_summary: cell-based or functional assay
Just the number please, in nM, no unit attached.

[[record]]
binder = "C086 (SEQ ID NO: 30; E6K, V11I, C38A, K53A, T63A, C76A, C127A) (ligand) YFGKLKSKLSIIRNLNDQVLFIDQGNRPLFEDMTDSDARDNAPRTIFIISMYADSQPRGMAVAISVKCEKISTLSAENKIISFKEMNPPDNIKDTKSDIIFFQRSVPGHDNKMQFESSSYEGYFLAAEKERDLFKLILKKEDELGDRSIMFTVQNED"
recorded_measurement = 0.026


Moving on to the next binder.
Sample C159 (V11I, C38A, K53A, C76A, H109A, C127A) (ligand) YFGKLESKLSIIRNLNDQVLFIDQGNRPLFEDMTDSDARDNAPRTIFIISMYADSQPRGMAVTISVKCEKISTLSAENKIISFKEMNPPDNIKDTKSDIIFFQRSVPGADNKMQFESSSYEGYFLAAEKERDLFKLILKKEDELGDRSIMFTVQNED — what was its EC50 (nM), IFNγ induction, NK-92 cells?
0.028

// data source = patent US20240116997A1
